Sourced from patent US20230023559A1

Provide the recorded IC50 for the entries that follow.
Molecular target: hERG channel (Homo sapiens, UniProt Q12809)
Sequence (Q12809 whole entry): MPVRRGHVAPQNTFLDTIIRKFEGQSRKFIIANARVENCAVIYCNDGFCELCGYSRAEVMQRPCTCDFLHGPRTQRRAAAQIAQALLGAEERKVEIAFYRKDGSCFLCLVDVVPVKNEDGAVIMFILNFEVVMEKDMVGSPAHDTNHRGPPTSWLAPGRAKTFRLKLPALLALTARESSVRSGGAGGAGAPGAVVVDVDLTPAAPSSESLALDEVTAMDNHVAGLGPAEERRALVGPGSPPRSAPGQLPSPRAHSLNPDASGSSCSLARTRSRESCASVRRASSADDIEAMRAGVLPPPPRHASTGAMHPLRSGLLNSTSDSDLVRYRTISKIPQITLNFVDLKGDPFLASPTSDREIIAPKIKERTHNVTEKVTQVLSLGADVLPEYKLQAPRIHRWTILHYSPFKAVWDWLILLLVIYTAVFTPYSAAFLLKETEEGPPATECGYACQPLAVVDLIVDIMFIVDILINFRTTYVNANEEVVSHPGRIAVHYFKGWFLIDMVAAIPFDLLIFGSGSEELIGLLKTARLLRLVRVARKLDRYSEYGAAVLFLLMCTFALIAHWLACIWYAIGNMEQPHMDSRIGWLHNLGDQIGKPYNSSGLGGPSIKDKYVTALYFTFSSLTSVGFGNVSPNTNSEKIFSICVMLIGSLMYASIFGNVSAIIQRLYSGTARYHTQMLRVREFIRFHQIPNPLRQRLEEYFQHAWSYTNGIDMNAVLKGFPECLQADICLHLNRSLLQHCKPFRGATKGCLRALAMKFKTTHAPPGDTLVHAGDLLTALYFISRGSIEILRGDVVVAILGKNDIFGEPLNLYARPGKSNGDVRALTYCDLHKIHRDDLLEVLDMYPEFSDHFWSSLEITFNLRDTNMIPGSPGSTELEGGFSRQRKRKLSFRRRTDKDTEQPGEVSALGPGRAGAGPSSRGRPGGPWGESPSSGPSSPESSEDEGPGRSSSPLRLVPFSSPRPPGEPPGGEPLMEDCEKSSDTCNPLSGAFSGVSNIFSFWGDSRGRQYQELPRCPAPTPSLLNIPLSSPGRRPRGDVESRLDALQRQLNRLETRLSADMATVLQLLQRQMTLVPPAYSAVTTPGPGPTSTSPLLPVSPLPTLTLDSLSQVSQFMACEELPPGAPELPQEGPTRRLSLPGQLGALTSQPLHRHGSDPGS
Assay: hERG electrophysiology, automated whole-cell patch clamp (Patchliner)

Example cases with answers are listed next.
| compound | IC50 |
| --- | --- |
| Nc1ccc(N2CCC([C@@H](N)c3cc(Cl)c(Cl)cc3O)CC2)nc1 | < 30 µM |
| CNC(c1cc(Cl)c(Cl)cc1O)C1CCNCC1 (centres unmarked) | > 30 µM |
| O=C([C@@H]1CCNC1)N1CCC([C@@H](O)c2c(O)ccc(Cl)c2Cl)CC1 (single isomer, unassigned) | > 30 µM |
| NC(=O)C(=O)N1CCC([C@@H](N)c2cc(Cl)c(Cl)cc2O)CC1 | > 30 µM |
| Cc1cc(O)c([C@H](N)C2CCN(C(=O)c3c[nH]c(=O)c(C)c3)CC2)cc1Cl | > 30 µM |
| N[C@@H](c1cc(Cl)c(Cl)cc1O)C1CCN(C(=O)C2(O)CC2)CC1 | < 30 µM |
| Cc1cc(O)c([C@H](N)C2CCN(C(=O)c3cnc4nccn4c3)CC2)cc1Cl | > 30 µM |
| NC(c1c(O)ccc2ccccc12)C1CCNCC1 (centres unmarked) | > 30 µM |

Batch of 6 compounds: report IC50 for each.
1. CN(C)C(=O)N1CCC(C(N)c2cc(Cl)c(Cl)cc2O)CC1 (centres unmarked)
2. NC(c1cc(Cl)c(Cl)cc1O)C1CCN(C(=O)[C@@H]2CCNC2)CC1 (some centres unmarked)
3. N[C@@H](c1cc(Cl)c(Br)cc1O)C1CCN(C(=O)[C@H](O)CO)CC1
4. N[C@@H](c1cc(Cl)c(Cl)cc1O)C1CCN(C(=O)COC2COC2)CC1
5. N[C@@H](c1cc(Cl)c(Cl)cc1O)C1CCN(C(=O)[C@H](O)CO)CC1 (single isomer, unassigned)
6. NC(=O)N1CCC([C@@H](N)c2cc(Cl)c(Cl)cc2O)CC1 (single isomer, unassigned)

Response:
["< 30 µM", "> 30 µM", "> 30 µM", "> 30 µM", "> 30 µM", "> 30 µM"]

---

Molecular target: Kv1.3 potassium channel (Homo sapiens, UniProt P22001)
Sequence (P22001 whole entry): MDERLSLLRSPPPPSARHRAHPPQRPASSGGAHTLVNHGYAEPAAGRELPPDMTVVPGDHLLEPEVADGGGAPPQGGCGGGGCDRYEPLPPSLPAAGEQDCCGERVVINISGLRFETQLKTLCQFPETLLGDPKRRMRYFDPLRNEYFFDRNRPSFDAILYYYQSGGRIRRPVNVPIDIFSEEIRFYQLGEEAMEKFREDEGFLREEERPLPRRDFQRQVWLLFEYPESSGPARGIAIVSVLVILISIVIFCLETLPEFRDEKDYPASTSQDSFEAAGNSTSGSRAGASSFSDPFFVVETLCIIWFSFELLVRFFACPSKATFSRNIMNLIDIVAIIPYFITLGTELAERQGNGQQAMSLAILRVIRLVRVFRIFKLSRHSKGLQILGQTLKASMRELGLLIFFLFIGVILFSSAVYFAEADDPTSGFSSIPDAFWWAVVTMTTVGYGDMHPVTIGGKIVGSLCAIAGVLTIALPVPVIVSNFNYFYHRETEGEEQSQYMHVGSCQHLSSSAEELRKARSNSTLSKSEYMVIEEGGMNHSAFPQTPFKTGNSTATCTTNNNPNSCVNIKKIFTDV
Test: Kv1.3 potassium channel blocker activity, automated whole-cell patch clamp (Patchliner)
Conditions: CHO-K1 cells stably expressing Kv1.3; whole cell current inhibition; read-out: Kv1.3_IC50
I'd appreciate it if you could supply IC50 values for the items below.

Consider the following illustrative entries.
| compound | measurement_name | reported |
| --- | --- | --- |
| Cc1cc(O)c([C@H](N)C2CCN(C(=O)c3cnc4nccn4c3)CC2)cc1Cl | IC50 | < 500 nM |
| NC(c1cc(Cl)c(Cl)cc1O)C1CCN(C(=O)[C@H]2CCNC2)CC1 (stereo partly shown) | IC50 | < 500 nM |
| Cc1cc(O)c([C@H](N)C2CCN(C(=O)c3ccc4nccn4c3)CC2)cc1Cl | IC50 | < 500 nM |
| CC(=O)N[C@H](c1cc(Cl)c(Cl)cc1O)C1CCNCC1 (single isomer, unassigned) | IC50 | < 10000 nM |
| CC1(C(N)c2cc(Cl)c(Cl)cc2O)CCN(C(=O)[C@H](O)CO)CC1 (stereo partly shown) | IC50 | < 10000 nM |

Required: IC50, one value per compound below.
1. CC(=O)NC(c1c(O)ccc2ccccc12)C1CCNCC1 (stereo not shown)
2. N[C@@H](c1cc(Cl)c(Cl)cc1O)C1CCN(C(=O)c2cn[nH]n2)CC1

Response:
1: < 10000 nM; 2: < 500 nM
